protocol: binders of probe aFGF10 on microarray, primary screen, stem cell growth factor project, biochemical, small-molecule microarray, fluorescence 635/667 (AID 1071);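 also: score merges 667 nm spot intensity and signal to noise from triplicate slides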
assay-conditions: higher = more signal
Would you kindly list composite z-score for each of these compounds?
A bare number is all that is needed in reply.

Report composite z-score for `COc1cc2c(cc1OC)CN(C(=O)[C@H]1[C@@H]3C(=O)O[C@@H](c4ccccc4)[C@@H](c4ccccc4)N3[C@@H](c3ccc(O)cc3)[C@]13C(=O)Nc1ccc(C#CC4(O)CCCCCC4)cc13)CC2` please.
1.12

Report composite z-score for C[C@H]1NC(=O)[C@@H](C)NC(=O)[C@@]23C(=O)N[C@@H](Cc4ccccc4)C2[C@H](C)[C@@]2(C)O[C@H]2C3/C=C/C/C=C\CNC1=O (some centres undefined) please.
-0.167

Report composite z-score for `COC(=O)C(CC#Cc1ccc2c(c1)[C@]1(C(=O)N2)[C@H](C(=O)N2CCCCCCC2)[C@H]2C(=O)O[C@H](c3ccccc3)[C@H](c3ccccc3)N2[C@@H]1c1ccc(O)cc1)C(=O)OC` please.
-0.542

Report composite z-score for `C=CCNC(=O)[C@@H]1[C@H]2C(=O)O[C@H](c3ccccc3)[C@H](c3ccccc3)N2[C@H](c2ccc(OCCO)cc2)[C@@]12C(=O)N(C(=O)OCCOC)c1ccc(C#CC3(O)CCCCCC3)cc12` please.
0.552
